- method.description: Cytotoxicity against human U937 cells assessed as cell viability at 20 uM relative to control
- Assay type: cell-based, U-937
- measurement.parameters: read-out: Activity
# viability at 20 µM listing for each entry below
attribute.measured: viability at 20 µM (%)

# compound, recorded.result
rows = [
    ("COC(=O)C1=C(OC)C(=O)OC1c1c(Cl)c2cc(C)cc(C)c2oc1=O (stereo not given)", 86.1),
    ("CCOC(=O)C1=C(OCC)C(=O)OC1C1=C(Cl)c2cc(Br)ccc2OC1 (stereo not given)", 87.2),
    ("CCOC(=O)C1=C(OCC)C(=O)OC1c1c(Cl)c2cc(C)ccc2oc1=O (stereo not given)", 79.8),
    ("CCOC(=O)C1=C(OCC)C(=O)OC1C1=C(Cl)c2ccccc2OC1 (stereo not given)", 88.9),
    ("CCOC(=O)C1=C(OCC)C(=O)OC1c1c(Cl)c2cc(Cl)ccc2oc1=O (stereo not given)", 90.7),
    ("COC(=O)C1=C(OC)C(=O)OC1C1=C(Cl)c2cc(Br)ccc2OC1 (stereo not given)", 94.3),
    ("CCOC(=O)C1=C(OCC)C(=O)OC1c1c(Cl)c2cc(C)cc(C)c2oc1=O (stereo not given)", 96.8),
    ("COC(=O)C1=C(OC)C(=O)OC1C1=C(Cl)c2ccccc2OC1 (stereo not given)", 88.1),
    ("COC(=O)C1=C(OC)C(=O)OC1C1=C(Cl)c2cc(C)ccc2OC1 (stereo not given)", 88.5),
    ("COC(=O)C1=C(OC)C(=O)OC1C1=C(Cl)c2ccc(C)c(C)c2OC1 (stereo not given)", 93.8),
]

###

- method.description: Cytotoxicity against human U937 cells assessed as cell viability at 20 uM relative to control
- Format: cell-based, U-937
- measurement.parameters: read-out: Activity
# viability at 20 µM listing for each entry below

# compound, viability at 20 µM
rows = [
    ("CCOC(=O)C1=C(OCC)C(=O)OC1C1=C(Cl)c2cc(Cl)ccc2OC1 (stereo not given)", "79.4%"),
    ("CCOC(=O)C1=C(OCC)C(=O)OC1C1=C(Cl)c2ccc3ccccc3c2OC1 (stereo not given)", "83.6%"),
    ("CCOC(=O)C1=C(OCC)C(=O)OC1C1=C(Cl)c2cc(C)c(C)cc2OC1 (stereo not given)", "93.4%"),
    ("COC(=O)C1=C(OC)C(=O)OC1c1c(Cl)c2cc(-c3ccccc3)ccc2oc1=O (stereo not given)", "82.3%"),
    ("COC(=O)C1=C(OC)C(=O)OC1c1c(Cl)c2cc(Cl)ccc2oc1=O (stereo not given)", "93.1%"),
]

###

- Test system: U-937
- method.description: Antiinflammatory activity in human U937 cells assessed as inhibition of PMA/LPS-stimulated TNFalpha production after 24 hrs by ELISA
- Format: functional, cell-based
- measurement.parameters: U-937, 24 h
attribute.measured: IC50 (µM)

# compound, assay.system, attribute.measured, result.unit, recorded.result
records = [
    ("COC(=O)C1=C(OC)C(=O)OC1C1=C(Cl)c2cc(Br)ccc2OC1 (configuration not stated)", "U-937", "IC50", "µM", 13),
    ("CCOC(=O)C1=C(OCC)C(=O)OC1c1c(Cl)c2cc(Br)ccc2oc1=O (configuration not stated)", "U-937", "IC50", "µM", 0.047),
    ("CCOC(=O)C1=C(OCC)C(=O)OC1C1=C(Cl)c2cc(C)c(C)cc2OC1 (configuration not stated)", "U-937", "IC50", "µM", 11.2),
    ("COC(=O)C1=C(OC)C(=O)OC1C1=C(Cl)c2ccccc2OC1 (configuration not stated)", "U-937", "IC50", "µM", 18.7),
    ("CCOC(=O)C1=C(OCC)C(=O)OC1C1=C(Cl)c2cc(Cl)ccc2OC1 (configuration not stated)", "U-937", "IC50", "µM", 10.6),
    ("CCOC(=O)C1=C(OCC)C(=O)OC1c1c(Cl)c2cc(C)cc(C)c2oc1=O (configuration not stated)", "U-937", "IC50", "µM", 1.11),
    ("C[C@]12C=CC(=O)C=C1CC[C@@H]1[C@@H]2[C@@H](O)C[C@@]2(C)[C@H]1CC[C@]2(O)C(=O)CO", "U-937", "IC50", "µM", 0.033),
]

Measured values drawn from ChEMBL document CHEMBL4622947 for this set.
